- TEST SUMMARY: Uptake ratio Ki of norepinephrine relative to serotonin (5-HT) at monoamine transporter
# binarize Ratio: threshold 60 inclusive, high side T, low side F

Q: Decide: is the reported value of Ratio for COC(=O)C1C2CC3CCC1N3C/C2=C\c1ccc(OC)cc1 (stereo unspecified) equal to or greater than 60?
A: F

Q: Decide: is the reported value of Ratio for COC(=O)C1C2CC3CCC1N3C/C2=C\c1cccc(Cl)c1 (stereo unspecified) equal to or greater than 60?
A: F

Q: Decide: is the reported value of Ratio for COC(=O)C1C2CC3CCC1N3C/C2=C\c1ccc(F)cc1 (stereo unspecified) equal to or greater than 60?
A: F

Q: Decide: is the reported value of Ratio for CC(C)OC(=O)C1C2CC3CCC1N3C/C2=C\c1ccc(Cl)c(Cl)c1 (stereo unspecified) equal to or greater than 60?
A: F

Q: Decide: is the reported value of Ratio for O=C(OCC1C2CC3CCC1N3C/C2=C\c1ccc(I)c(Cl)c1)c1ccccc1 (stereo unspecified) equal to or greater than 60?
A: T

Q: Decide: is the reported value of Ratio for COC(=O)C1C2CC3CCC1N3C/C2=C\c1cc2ccccc2c2ccccc12 (stereo unspecified) equal to or greater than 60?
A: F

Q: Decide: is the reported value of Ratio for Clc1ccc(/C=C2\CN3C4CCC3C(COc3ccc(I)cc3)C2C4)cc1Cl (stereo unspecified) equal to or greater than 60?
A: F

Q: Decide: is the reported value of Ratio for Cc1ccc(/C=C2\CN3C4CCC3C(COC(=O)c3ccccc3)C2C4)cc1Cl (stereo unspecified) equal to or greater than 60?
A: T

Q: Decide: is the reported value of Ratio for COC(=O)C1C2CC3CCC1N3C/C2=C\c1ccc(C)c(C)c1 (stereo unspecified) equal to or greater than 60?
A: T

Q: Decide: is the reported value of Ratio for COC(=O)C1C2CC3CCC1N3C/C2=C\c1ccc2ccccc2c1 (stereo unspecified) equal to or greater than 60?
A: F

Q: Decide: is the reported value of Ratio for COC(=O)C1C2CC3CCC1N3C/C2=C\c1ccc(Br)c(Cl)c1 (stereo unspecified) equal to or greater than 60?
A: T
